List of plasma concentration values.
Test system: Rattus norvegicus
Assay: Plasma concentration in rat at 10 mg/kg, po after 4 hrs
Assay type: ADME, organism-based
Design: dose 10 mg/kg, route oral

compoundStructure | systemName | outputUnit | plasma concentration
O=C1OC2(CCN(c3nc4cc(-c5ccccc5)ccc4[nH]3)CC2)c2ccccc21 | Rattus norvegicus | µM | 1.3
O=C1OC2(CCN(c3nc4cc(Cl)ccc4[nH]3)CC2)c2ccccc21 | Rattus norvegicus | µM | 25.6
COC(=O)c1ccc2[nH]c(N3CCC4(CC3)OC(=O)c3ccccc34)nc2c1 | Rattus norvegicus | µM | 0.1
O=C1OC2(CCN(c3nc4cc(Cl)c(Cl)cc4[nH]3)CC2)c2ccccc21 | Rattus norvegicus | µM | 4.6
O=C1OC2(CCN(c3nc4cc(C(F)(F)F)ccc4[nH]3)CC2)c2ccccc21 | Rattus norvegicus | µM | 17.5

###

Below are IC50 values measured for Neuropeptide Y receptor type 4 (Homo sapiens, UniProt P50391).

compoundStructure | systemName | IC50
O=C1OC2(CCN(c3nc4cc(C(F)(F)F)ccc4[nH]3)CC2)c2ccccc21 | Neuropeptide Y receptor type 4 (Homo sapiens, UniProt P50391) | > 10 µM
O=C1OC2(CCN(c3nc4cc(Cl)ccc4[nH]3)CC2)c2ccccc21 | Neuropeptide Y receptor type 4 (Homo sapiens, UniProt P50391) | > 10 µM

###

Below are IC50 values measured for UniProt P25929.
Sequence (P25929 whole entry): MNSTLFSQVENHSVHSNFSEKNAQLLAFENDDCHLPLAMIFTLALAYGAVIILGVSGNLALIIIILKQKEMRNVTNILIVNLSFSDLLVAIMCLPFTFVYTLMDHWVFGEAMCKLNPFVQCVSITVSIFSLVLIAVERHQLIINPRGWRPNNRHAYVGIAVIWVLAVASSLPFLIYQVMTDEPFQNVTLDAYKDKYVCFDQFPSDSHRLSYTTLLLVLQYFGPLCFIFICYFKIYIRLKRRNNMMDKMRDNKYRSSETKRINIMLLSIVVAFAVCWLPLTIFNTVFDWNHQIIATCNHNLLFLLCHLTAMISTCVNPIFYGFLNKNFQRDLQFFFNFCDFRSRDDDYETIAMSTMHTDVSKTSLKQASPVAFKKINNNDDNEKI
metricName: IC50

compoundStructure | metricName | endpointValue
O=C1OC2(CCN(c3nc4cc(C(F)(F)F)ccc4[nH]3)CC2)c2ccccc21 | IC50 | > 10 µM
O=C1OC2(CCN(c3nc4cc(Cl)c(Cl)cc4[nH]3)CC2)c2ccccc21 | IC50 | > 10 µM
O=C1OC2(CCN(c3nc4cc(Cl)ccc4[nH]3)CC2)c2ccccc21 | IC50 | > 10 µM

###

Biological target: Neuropeptide Y receptor type 5 (Homo sapiens, UniProt Q15761)
Sequence (Q15761 whole entry): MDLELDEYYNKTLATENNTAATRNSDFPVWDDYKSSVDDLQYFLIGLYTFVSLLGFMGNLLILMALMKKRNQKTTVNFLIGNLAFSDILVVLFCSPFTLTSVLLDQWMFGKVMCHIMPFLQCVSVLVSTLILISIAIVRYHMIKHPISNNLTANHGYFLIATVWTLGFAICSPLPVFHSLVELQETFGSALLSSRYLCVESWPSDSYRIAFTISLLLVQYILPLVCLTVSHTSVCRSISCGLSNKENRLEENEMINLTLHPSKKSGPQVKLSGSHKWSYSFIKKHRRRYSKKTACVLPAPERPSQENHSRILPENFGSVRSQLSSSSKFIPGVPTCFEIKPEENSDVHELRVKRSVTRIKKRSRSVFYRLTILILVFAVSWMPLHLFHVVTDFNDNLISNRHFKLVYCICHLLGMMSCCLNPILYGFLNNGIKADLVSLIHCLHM
Assay: Binding affinity to human NPY Y5 receptor transfected in mouse LMtk cells
Format: cell-based
pIC50: −log10 of the molar value.

compoundStructure | qualifierSign | pIC50
O=C1OC2(CCN(c3nc4ccccc4s3)CC2)c2ccccc21 | < | 5.00
O=C(O)c1ccc2[nH]c(N3CCC4(CC3)OC(=O)c3ccccc34)nc2c1 | < | 6.00
O=C1OC2(CCN(c3nc4cc(F)ccc4[nH]3)CC2)c2ccccc21 | = | 7.55
O=C1OC2(CCN(c3nc4cc(Cl)cc(Cl)c4[nH]3)CC2)c2ccccc21 | = | 8.24
CS(=O)(=O)N1CC2(CCN(c3nc4ccccc4[nH]3)CC2)c2ccccc21 | < | 6.00
O=C1OC2(CCN(c3nc4cc(Cl)ccc4[nH]3)CC2)c2ccccc21 | = | 8.18
CC(=O)Nc1ccc2nc(N3CCC4(CC3)OC(=O)c3ccccc34)[nH]c2c1 | = | 6.89
O=C1OC2(CCN(c3nc4ccc(Br)cc4[nH]3)CC2)c2ccccc21 | = | 8.00
O=C1OC2(CCN(c3nc4cccc(C(F)(F)F)c4[nH]3)CC2)c2ccccc21 | = | 7.08
Cc1cc2nc(N3CCC4(CC3)OC(=O)c3ccccc34)[nH]c2cc1C | = | 8.04
Cc1ccc2[nH]c(N3CCC4(CC3)OC(=O)c3ccccc34)nc2c1 | = | 7.44
CC(C)Cc1ccc2nc(N3CCC4(CC3)OC(=O)c3ccccc34)[nH]c2c1 | = | 8.74
O=C1OC2(CCN(c3nc4cc(Cl)c(Cl)cc4[nH]3)CC2)c2ccccc21 | = | 8.80
O=C1OC2(CCN(c3nc4cc(Cl)c(F)cc4[nH]3)CC2)c2ccccc21 | = | 8.17
CCOC(=O)c1ccc2nc(N3CCC4(CC3)OC(=O)c3ccccc34)[nH]c2c1 | = | 8.70
CNC(=O)c1ccc2nc(N3CCC4(CC3)OC(=O)c3ccccc34)[nH]c2c1 | = | 7.70
CS(=O)(=O)Nc1ccc2nc(N3CCC4(CC3)OC(=O)c3ccccc34)[nH]c2c1 | = | 7.25
